Listed below are compounds with Ki for Protein kinase C alpha type (Homo sapiens), each taken from published literature.
quantityKind: Ki

| compound | observed |
| --- | --- |
| CC1CN(c2ccc(F)c(-c3n[nH]c4ncccc34)n2)CC1CN (stereo not drawn) | > 1250 nM |
| Fc1ccc(CNc2ncc3nc(-c4c(Cl)cccc4Cl)n(CC4CCNC4)c3n2)cc1F (stereo not drawn) | > 1000 nM |
| CN1CCN(c2cccc(-c3n[nH]c4ncccc34)n2)CC1 | > 1250 nM |
| Fc1ccc(CNc2ncc3nc(-c4c(Cl)cccc4Cl)n(C[C@H]4CCNC4)c3n2)cc1F | > 1000 nM |
| CCC[C@H]1CN(c2ccc(C(F)(F)F)c(C(=O)c3cccnc3N)n2)C[C@H](CC(C)C)N1 | > 2800 nM |
| COC(C)(C)CC1CN(c2ccc(C(F)(F)F)c(-c3n[nH]c4ncccc34)n2)CCN1 (stereo not drawn) | > 1250 nM |
| CC(F)(F)CC1CN(c2cccc(-c3n[nH]c4ncccc34)n2)CCN1 (stereo not drawn) | < 2800 nM |
| O=c1[nH]c2cnc(NC[C@@H]3CCCNC3)nc2n1Cc1ccccc1C(F)(F)F | > 10000 nM |
| N[C@@H]1CCN(c2cccc(-c3n[nH]c4ncccc34)n2)C1 | > 1250 nM |
| OC1(C2CN(c3ccc(F)c(-c4n[nH]c5ncccc45)n3)CCN2)COC1 (stereo not drawn) | > 1250 nM |
| NCC1CN(c2ccc(F)c(-c3n[nH]c4ncccc34)n2)C1 | > 1250 nM |
| Fc1cc(F)cc(CNc2ncc3nc(-c4c(Cl)cccc4Cl)n(CCC4CCNCC4)c3n2)c1 | > 1000 nM |
| C=C(F)c1cc(-c2n[nH]c3ncccc23)nc(N2CCC(N)CC2)c1 | > 1250 nM |
| CC(C)C(N)[C@H]1CCCN(c2ccc(C(F)(F)F)c(-c3n[nH]c4ncccc34)n2)C1 (stereo partly drawn) | > 1250 nM |
| CC(C)C[C@H]1CN(c2ccc(F)c(-c3n[nH]c4ncccc34)n2)C[C@@H](C)N1 | < 2800 nM |
| Cc1cccc(C2CN(c3cccc(-c4n[nH]c5ncccc45)n3)CCN2)c1 (stereo not drawn) | < 2800 nM |
| c1cc(-c2n[nH]c3ncccc23)nc(N2CCNCC2)c1 | < 2800 nM |
| CC(C)=CC1CN(c2ccc(C(F)(F)F)c(-c3n[nH]c4ncccc34)n2)CCN1 (stereo not drawn) | < 2800 nM |
| CC(C)(N)CNc1ccc(C(F)(F)F)c(C(=O)c2cccnc2N)n1 | 500 to 2800 nM |
| O=c1[nH]c2cnc(NCC3CCNCC3)nc2n1Cc1ccccc1C(F)(F)F | > 10000 nM |
| CC(C)C[C@@H]1CN(c2ccc(C(F)(F)F)c(-c3n[nH]c4ncccc34)n2)CCN1 | > 1250 nM |
| COC(C)(C)C1CN(c2ccc(F)c(-c3n[nH]c4ncccc34)n2)CCN1 (stereo not drawn) | > 1250 nM |
| CC#Cc1ccc(N2CCN[C@@H](CC(C)C)C2)nc1C(=O)c1cccnc1N | < 50 nM |
| O=c1[nH]c2cnc(NC[C@@H]3CCNC3)nc2n1Cc1cccc(Cl)c1Cl | > 1000 nM |
| COc1ccccc1Cn1c(=O)[nH]c2cnc(NCCCN)nc21 | > 10000 nM |
| Nc1ncccc1C(=O)c1cccc(N2CCNC(CO)C2)n1 (stereo not drawn) | 500 to 2800 nM |
| CC1(CN)CCN(c2ccc(C(F)(F)F)c(-c3n[nH]c4ncccc34)n2)CC1 | > 1250 nM |
| Cc1sc(-c2ccnc3[nH]ncc23)nc1C(C)(C)CN | < 2800 nM |
| COC(C)(C(C)C)C1CN(c2ccc(F)c(-c3n[nH]c4ncccc34)n2)CCN1 (stereo not drawn) | > 1250 nM |
| CC[C@@H]1CN(c2ccc(C(F)(F)F)c(C(=O)c3cccnc3N)n2)C[C@H](C(C)C)N1 | > 2800 nM |
| CC(C)CC1(C#N)CCN(c2ccc(C(F)(F)F)c(-c3n[nH]c4ncccc34)n2)CC1 | > 1250 nM |
| CC(C)C[C@H]1CN(c2ccc(C(F)(F)F)c(-c3n[nH]c4ncccc34)n2)CCN1 | > 1250 nM |
| CCC[C@H]1CN(c2ccc(C(F)(F)F)c(C(=O)c3cccnc3N)n2)C[C@@H](c2ccccc2)N1 | > 2800 nM |
